Molecular target: G protein-coupled receptor 119 (GPR-119) (Mesocricetus auratus, UniProt A0A1U8CD06)
Construct: hamster-derived β-cells containing G protein-coupled receptor 119 (GPR-119), HIT-T15 cells; host or cells: HIT-T15 (hamster pancreatic β-cells)
Sequence (A0A1U8CD06 1-334): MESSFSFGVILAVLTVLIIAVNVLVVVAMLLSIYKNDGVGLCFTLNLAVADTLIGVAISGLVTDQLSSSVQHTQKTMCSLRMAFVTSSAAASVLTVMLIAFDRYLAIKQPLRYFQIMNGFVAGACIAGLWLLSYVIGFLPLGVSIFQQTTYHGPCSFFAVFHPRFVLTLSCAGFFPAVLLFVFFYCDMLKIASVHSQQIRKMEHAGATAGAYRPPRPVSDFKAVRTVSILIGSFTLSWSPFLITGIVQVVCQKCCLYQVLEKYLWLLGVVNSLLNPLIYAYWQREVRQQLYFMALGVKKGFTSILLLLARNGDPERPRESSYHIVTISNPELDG
Assay: Evaluation of cAMP activity in HIT-T15 cells (HTRF cAMP dynamic kit)
Format: cell-based, hamster
Conditions: cAMP activation, 1 h at 37° C., six concentrations, read-out: EC50
Method: To check whether the cyclohexene derivatives according to the present invention activate cyclic adenosine monophosphate (cAMP), experiments were carried out, as follows. The HIT-T15 cells were plated on a 96-well plate at 60,000 cells per well. […] The cyclic adenosine monophosphate (cAMP) activity was measured according to the manufacturer's instruction using a cAMP dynamic kit commercially available from Cis Bio Inc. (Bedford, Mass.). […] Fluorescence was read in Flex Station (Molecular Devices). […]
observation type: EC50

[[record]]
compound = "CCc1cnc(N2CCC(COc3ccc(C4=CCC(C(=O)N5CCC[C@H]5C#N)CC4)cc3)CC2)nc1 (stereo partly shown)"
endpoint_result = "22 nM"

[[record]]
compound = "CCc1cnc(N2CCC(COc3ccc(C4=CCC(C(=O)N5CC=CC5)CC4)cc3)CC2)nc1 (stereo not shown)"
endpoint_result = "24 nM"

[[record]]
compound = "CC(C)c1noc(N2CCC(COc3ccc(C4=CCC(C(=O)NCCC(=O)N5CCOCC5)CC4)cc3F)CC2)n1 (stereo not shown)"
endpoint_result = "68 nM"

[[record]]
compound = "CC(C)c1noc(N2CCC(COc3ccc(C4=CCC(C(=O)NCC(F)(F)F)CC4)cc3F)CC2)n1 (stereo not shown)"
endpoint_result = "64 nM"

[[record]]
compound = "CCc1cnc(N2CCC(COc3ccc(C4=CCC(C(=O)NC[C@H](C)O)CC4)cc3)CC2)nc1 (stereo partly shown)"
endpoint_result = "62 nM"

[[record]]
compound = "CCc1cnc(N2CCC(COc3ccc(C4=CCC(C(=O)N5C/C(=N\\OC)C(CO)(CO)C5)CC4)cc3)CC2)nc1 (stereo not shown)"
endpoint_result = "9 nM"

[[record]]
compound = "CC(C)c1noc(N2CCC(COc3ccc(C4=CCC(C(=O)N[C@H](C)CO)CC4)cc3)CC2)n1 (stereo partly shown)"
endpoint_result = "90 nM"


----------
Biological target: G protein-coupled receptor 119 (GPR-119) (Mesocricetus auratus, UniProt A0A1U8CD06)
Construct: hamster-derived β-cells containing G protein-coupled receptor 119 (GPR-119), HIT-T15 cells; host or cells: HIT-T15 (hamster pancreatic β-cells)
Assay: Evaluation of cAMP activity in HIT-T15 cells (HTRF cAMP dynamic kit)
Assay type: cell-based, hamster
Conditions: cAMP activation, 1 h at 37° C., six concentrations, read-out: EC50
Description: To check whether the cyclohexene derivatives according to the present invention activate cyclic adenosine monophosphate (cAMP), experiments were carried out, as follows. The HIT-T15 cells were plated on a 96-well plate at 60,000 cells per well. […] The cyclic adenosine monophosphate (cAMP) activity was measured according to the manufacturer's instruction using a cAMP dynamic kit commercially available from Cis Bio Inc. (Bedford, Mass.). […] Fluorescence was read in Flex Station (Molecular Devices). […]
pEC50: −log10 of the molar value. Structures can show the parent of a compound that is named as a salt.
observation type: pEC50

[[record]]
compound = "CC(C)c1noc(N2CCC(COc3ccc(C4=CCC(C(=O)N5CCCCC5)CC4)cc3)CC2)n1 (stereo not drawn)"
endpoint_result = 7.52

[[record]]
compound = "CCc1cnc(N2CCC(COc3ccc(C4=CCC(C(=O)N5CC[C@H](F)C5)CC4)cc3)CC2)nc1 (stereo partly drawn) [Example 160]"
endpoint_result = 7.85

[[record]]
compound = "CCc1cnc(N2CCC(COc3ccc(C4=CCC(C(=O)N5CCC(F)(F)C5)CC4)cc3)CC2)nc1 (stereo not drawn)"
endpoint_result = 8.00

[[record]]
compound = "CC(C)c1noc(N2CCC(COc3ccc(C4=CCC(C(=O)N5CC[C@H](O)C5)CC4)cc3)CC2)n1 (stereo partly drawn)"
endpoint_result = 7.59

[[record]]
compound = "CC(C)(C)OC(=O)N1CCC(COc2ccc(C3=CCC(C(=O)NC[C@H](O)CO)CC3)cn2)CC1 (stereo partly drawn)"
endpoint_result = 6.22

[[record]]
compound = "CN(CCO)C(=O)C1CC=C(c2ccc(OCC3CCN(C(=O)OC(C)(C)C)CC3)cc2)CC1 (stereo not drawn)"
endpoint_result = 7.85

[[record]]
compound = "CC(C)c1noc(N2CCC(COc3ccc(C4=CCC(C(=O)N5CC[C@H](F)C5)CC4)cc3F)CC2)n1 (stereo partly drawn)"
endpoint_result = 7.80

[[record]]
compound = "C[C@@H](CO)NC(=O)C1CC=C(c2ccc(OCC3CCN(C(=O)OC(C)(C)C)CC3)c(F)c2)CC1 (stereo partly drawn)"
endpoint_result = 7.11

[[record]]
compound = "CCc1cnc(N2CCC(COc3ccc(C4=CCC(C(=O)N(C)OC)CC4)cc3)CC2)nc1 (stereo not drawn)"
endpoint_result = 7.74

[[record]]
compound = "CCc1cnc(N2CCC(COc3ccc(C4=CCC(C(=O)N5CCC(N6CCOCC6)CC5)CC4)cc3)CC2)nc1 (stereo not drawn)"
endpoint_result = 7.40

[[record]]
compound = "CC(C)(C)OC(=O)N1CCC(COc2ccc(C3=CCC(C(=O)N4CCC(CO)CC4)CC3)cc2)CC1 (stereo not drawn)"
endpoint_result = 7.85

[[record]]
compound = "CC(C)c1noc(N2CCC(COc3ccc(C4=CCC(C(=O)N(C)CCO)CC4)cc3F)CC2)n1 (stereo not drawn)"
endpoint_result = 8.05

[[record]]
compound = "CC(C)(C)OC(=O)N1CCC(COc2ccc(C3=CCC(C(=O)NC[C@@H](O)CO)CC3)cn2)CC1 (stereo partly drawn)"
endpoint_result = 6.19

[[record]]
compound = "CC(C)(C)OC(=O)N1CCC(COc2ccc(C3=CCC(C(=O)NCC(F)F)CC3)cc2F)CC1 (stereo not drawn)"
endpoint_result = 7.74

[[record]]
compound = "CC(C)c1noc(N2CCC(COc3ccc(C4=CCC(C(=O)N5CCC(F)(F)C5)CC4)cc3)CC2)n1 (stereo not drawn)"
endpoint_result = 8.00

[[record]]
compound = "CC(C)(C)OC(=O)N1CCC(COc2ccc(C3=CCC(C(=O)N4CCOCC4)CC3)cn2)CC1 (stereo not drawn)"
endpoint_result = 7.35

[[record]]
compound = "C[C@H](CO)NC(=O)C1CC=C(c2ccc(OCC3CCN(C(=O)OC(C)(C)C)CC3)nc2)CC1 (stereo partly drawn)"
endpoint_result = 6.68

[[record]]
compound = "CC(C)c1noc(N2CCC(COc3ccc(C4=CCC(C(=O)N(C)CCO)CC4)cc3)CC2)n1 (stereo not drawn)"
endpoint_result = 7.68

[[record]]
compound = "CC(C)(C)OC(=O)N1CCC(COc2ccc(C3=CCC(C(=O)NC(CO)CO)CC3)cc2F)CC1 (stereo not drawn)"
endpoint_result = 7.22

[[record]]
compound = "CCc1cnc(N2CCC(COc3ccc(C4=CCC(C(=O)NCC(F)F)CC4)cc3)CC2)nc1 (stereo not drawn)"
endpoint_result = 7.02

[[record]]
compound = "CC(C)(C)OC(=O)N1CCC(COc2ccc(C3=CCC(C(=O)N4CCC5(C=Cc6ccccc65)CC4)CC3)cc2)CC1 (stereo not drawn)"
endpoint_result = 7.74

[[record]]
compound = "CC(C)c1noc(N2CCC(COc3ccc(C4=CCC(C(=O)NCCF)CC4)cc3)CC2)n1 (stereo not drawn)"
endpoint_result = 6.68

[[record]]
compound = "CC(C)c1noc(N2CCC(COc3ccc(C4=CCC(C(=O)NC[C@H](O)CO)CC4)nc3)CC2)n1 (stereo partly drawn)"
endpoint_result = 6.19

[[record]]
compound = "CCc1cnc(N2CCC(COc3ccc(C4=CCC(C(=O)N[C@@H](C)CO)CC4)cc3)CC2)nc1 (stereo partly drawn)"
endpoint_result = 7.08

[[record]]
compound = "CC(C)c1noc(N2CCC(COc3ccc(C4=CCC(C(=O)NCCO)CC4)cc3)CC2)n1 (stereo not drawn)"
endpoint_result = 6.59

[[record]]
compound = "CC(C)c1noc(N2CCC(COc3ccc(C4=CCC(C(=O)N5CCC[C@@H]5C#N)CC4)cc3F)CC2)n1 (stereo partly drawn)"
endpoint_result = 7.96

[[record]]
compound = "CCc1cnc(N2CCC(COc3ccc(C4=CCC(C(=O)N5CCOCC5)CC4)cc3)CC2)nc1 (stereo not drawn)"
endpoint_result = 7.89

[[record]]
compound = "CCc1cnc(N2CCC(COc3ccc(C4=CCC(C(=O)N5CCC(CO)CC5)CC4)cc3)CC2)nc1 (stereo not drawn) [Example 169, hydrochloride]"
endpoint_result = 8.05

[[record]]
compound = "CCc1cnc(N2CCC(COc3ccc(C4=CCC(C(=O)NCCCO)CC4)cc3)CC2)nc1 (stereo not drawn)"
endpoint_result = 7.12

[[record]]
compound = "CC(C)c1noc(N2CCC(COc3ccc(C4=CCC(C(=O)NCC(C)(C)CO)CC4)nc3)CC2)n1 (stereo not drawn)"
endpoint_result = 6.82

